# ASSAY_SYSTEM: DNA topoisomerase II (Homo sapiens) (UniProt P11388+Q02880)
# ASSAY_SUMMARY: Inhibitory activity against human DNA topoisomerase II
# Format: protein assay
For each entry below, report its ID50 value.
Numbers only, in µM.

Entry COc1cc([C@@H]2c3cc4c(cc3[C@@H](Nc3cccc(CO)c3)[C@H]3COC(=O)[C@H]23)OCO4)cc(OC)c1O : reported ID50 = ?
25

Entry COC(=O)c1cccc(N[C@@H]2c3cc4c(cc3[C@@H](c3cc(OC)c(O)c(OC)c3)[C@H]3C(=O)OC[C@@H]32)OCO4)c1 : reported ID50 = ?
50

Now for the compound whose ID50 we want.
Entry CCOC(=O)c1ccc(N[C@@H]2c3cc4c(cc3[C@@H](c3cc(OC)c(O)c(OC)c3)[C@H]3C(=O)OC[C@@H]32)OCO4)cc1 : reported ID50 = ?
5

* * *

# ASSAY_SYSTEM: DNA topoisomerase II (Homo sapiens) (UniProt P11388+Q02880)
# ASSAY_SUMMARY: Inhibitory activity against human DNA topoisomerase II
# Assay type: protein assay
For each entry below, report its ID50 value.
Give bare numbers, in µM.

Entry COc1cccc(N[C@@H]2c3cc4c(cc3[C@@H](c3cc(OC)c(O)c(OC)c3)[C@H]3C(=O)OC[C@@H]32)OCO4)c1 : reported ID50 = ?
25

For each listed entry, give its ID50.
1. COc1cc([C@@H]2c3cc4c(cc3[C@@H](Nc3ccc(Oc5ccccc5)cc3)[C@H]3COC(=O)[C@H]23)OCO4)cc(OC)c1O
2. COc1cc([C@@H]2c3cc4c(cc3[C@@H](Nc3cccc(O)c3)[C@H]3COC(=O)[C@H]23)OCO4)cc(OC)c1O
3. COc1cc([C@@H]2c3cc4c(cc3[C@@H](Nc3ccc(N5CCOCC5)cc3)[C@H]3COC(=O)[C@H]23)OCO4)cc(OC)c1O
4. COC(=O)c1ccc(N[C@@H]2c3cc4c(cc3[C@@H](c3cc(OC)c(O)c(OC)c3)[C@H]3C(=O)OC[C@@H]32)OCO4)cc1O
5. COc1cc([C@@H]2c3cc4c(cc3[C@@H](Nc3ccccn3)[C@H]3COC(=O)[C@H]23)OCO4)cc(OC)c1O

1. 25
2. 25
3. 10
4. 50
5. 50

For each listed entry, give its ID50.
1. COc1cc([C@@H]2c3cc4c(cc3[C@@H](Nc3ccccc3)[C@H]3COC(=O)[C@H]23)OCO4)cc(OC)c1O
2. COc1cc([C@@H]2c3cc4c(cc3[C@@H](Nc3ccc(N)cc3)[C@H]3COC(=O)[C@H]23)OCO4)cc(OC)c1O
3. COc1cc([C@@H]2c3cc4c(cc3[C@@H](Nc3cccc(C(C)=O)c3)[C@H]3COC(=O)[C@H]23)OCO4)cc(OC)c1O
4. COc1cc([C@@H]2c3cc4c(cc3[C@@H](Nc3ccc([N+](=O)[O-])cc3)[C@H]3COC(=O)[C@H]23)OCO4)cc(OC)c1O
5. COC(=O)c1cc(N[C@@H]2c3cc4c(cc3[C@@H](c3cc(OC)c(O)c(OC)c3)[C@H]3C(=O)OC[C@@H]32)OCO4)ccc1O

[25, 5, 50, 10, 50]
